Below, each entry is listed alongside its reported pIC50.
- Target Under Test: PI3Kδ (p110δ/p85α) Recombinant Human Protein (Homo sapiens (Human), UniProt O00329)
- Sequence (O00329 whole entry): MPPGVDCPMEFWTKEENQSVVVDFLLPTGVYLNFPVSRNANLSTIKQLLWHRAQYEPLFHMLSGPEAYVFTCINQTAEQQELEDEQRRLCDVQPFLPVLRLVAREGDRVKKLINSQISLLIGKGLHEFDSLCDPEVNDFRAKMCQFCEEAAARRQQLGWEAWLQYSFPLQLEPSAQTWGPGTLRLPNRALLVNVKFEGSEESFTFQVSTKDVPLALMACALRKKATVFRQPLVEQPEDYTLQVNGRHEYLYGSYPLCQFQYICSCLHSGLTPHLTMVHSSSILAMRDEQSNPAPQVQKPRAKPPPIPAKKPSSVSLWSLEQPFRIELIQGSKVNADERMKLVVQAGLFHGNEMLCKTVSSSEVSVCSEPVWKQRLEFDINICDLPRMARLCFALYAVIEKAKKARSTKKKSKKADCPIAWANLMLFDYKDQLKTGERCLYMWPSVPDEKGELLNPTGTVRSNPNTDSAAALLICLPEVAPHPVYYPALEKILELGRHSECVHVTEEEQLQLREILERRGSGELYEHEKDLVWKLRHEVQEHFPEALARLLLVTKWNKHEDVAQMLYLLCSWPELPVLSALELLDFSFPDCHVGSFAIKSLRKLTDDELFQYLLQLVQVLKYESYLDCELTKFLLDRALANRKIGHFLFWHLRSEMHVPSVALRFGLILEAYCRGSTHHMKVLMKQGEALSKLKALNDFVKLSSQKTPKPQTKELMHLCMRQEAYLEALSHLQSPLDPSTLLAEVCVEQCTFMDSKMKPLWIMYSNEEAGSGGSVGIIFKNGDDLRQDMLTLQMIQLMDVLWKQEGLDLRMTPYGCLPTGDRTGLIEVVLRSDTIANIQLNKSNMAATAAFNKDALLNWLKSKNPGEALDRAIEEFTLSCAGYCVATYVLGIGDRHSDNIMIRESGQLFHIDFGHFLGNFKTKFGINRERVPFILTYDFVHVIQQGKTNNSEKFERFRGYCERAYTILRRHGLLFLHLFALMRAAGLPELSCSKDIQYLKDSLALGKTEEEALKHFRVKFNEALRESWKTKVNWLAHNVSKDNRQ
- Sequence (P27986 whole entry partner): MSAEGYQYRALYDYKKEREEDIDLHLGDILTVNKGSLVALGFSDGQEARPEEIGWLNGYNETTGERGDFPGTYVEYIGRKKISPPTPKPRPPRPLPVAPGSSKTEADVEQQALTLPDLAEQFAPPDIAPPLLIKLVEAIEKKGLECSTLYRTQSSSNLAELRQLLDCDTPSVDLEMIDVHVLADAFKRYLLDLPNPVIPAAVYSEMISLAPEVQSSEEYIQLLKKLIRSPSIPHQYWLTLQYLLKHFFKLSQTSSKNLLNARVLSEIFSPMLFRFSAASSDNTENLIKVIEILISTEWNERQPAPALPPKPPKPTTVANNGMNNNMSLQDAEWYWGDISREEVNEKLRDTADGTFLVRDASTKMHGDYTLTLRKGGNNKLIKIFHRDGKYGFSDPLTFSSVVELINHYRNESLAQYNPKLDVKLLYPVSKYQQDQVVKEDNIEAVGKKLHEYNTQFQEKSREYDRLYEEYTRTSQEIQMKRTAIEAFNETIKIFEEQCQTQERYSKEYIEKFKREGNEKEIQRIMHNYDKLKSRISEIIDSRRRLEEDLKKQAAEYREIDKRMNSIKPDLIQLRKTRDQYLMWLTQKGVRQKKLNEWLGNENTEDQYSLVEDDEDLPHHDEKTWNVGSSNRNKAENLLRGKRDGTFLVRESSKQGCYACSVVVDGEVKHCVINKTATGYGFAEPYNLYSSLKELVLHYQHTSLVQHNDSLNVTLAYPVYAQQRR
- Assay Summary: PI3Kδ scintillation proximity assay
- Format: biochemical
- Run Parameters: 20 μM PIP2, 2 μM ATP, 3.4 nM PI3Kδ, 120 min, room temperature; read-out: PI3Kδ IC50
- Experimental: PI3Kδ Scintillation Proximity Assay [γ-^33P]ATP (10 mCi/mL) and Wheat Germ Agglutinin (WGA) YSi SPA Scintillation Beads was purchased from PerkinElmer (Waltham, Mass.). […] PI3Kδ (p110δ/p85α) Recombinant Human Protein was purchased from Eurofins (St Charles, Mo.). ATP, MgCl2, DTT, EDTA, MOPS and CHAPS were purchased from SigmaAldrich (St. Louis, Mo.). The kinase reaction was conducted in polystyrene 384-well Greiner Bio-one white plate from Thermo Fisher Scientific in a final volume of 25 μL. […]
pIC50: −log10 of the molar value. Structures can show the parent of a compound that is named as a salt.

Answered cases to consult:
>>> reported_result("CCOC(=O)C1CC1c1cn2c(-c3cc(C(C)(O)C(F)F)ccc3C)cnc2c(N)n1 (single isomer, unassigned) [Example 74, trifluoroacetate salt]")
"5.70 to 6.30"
>>> reported_result("CNCCC(O)(c1ccc(C)c(-c2cnc3c(N)nc(C(F)(F)F)cn23)c1)C(F)(F)F (single isomer, unassigned) [Example 15]")
"6.30 to 7.00"
>>> reported_result("Cc1ccc(C(C)(O)C(F)(F)F)cc1-c1cnc2c(N)nc(C(=O)N[C@@H](B(O)O)C3CCC3)cn12 (single isomer, unassigned)")
"5.70 to 6.30"
>>> reported_result("Cc1ccc(C(C)(O)C(F)(F)F)cc1-c1cnc2c(N)nc(C(=O)NC34CCN(CC3)C4)cn12 (stereo not drawn) [Example 277, trifluoroacetate salt]")
"6.30 to 7.00"
>>> reported_result("Cc1ccc(C(O)(C(=O)NC2(C)CNC2)C(F)(F)F)cc1-c1cnc2c(N)nc(C(F)(F)F)cn12 (stereo not drawn) [Example 128, trifluoroacetate salt]")
"> 7.00"

Now turn to the next compound.
Fill in: pIC50 of Cc1ccc(C(O)(C(=O)O)C(F)(F)F)cc1-c1cnc2c(N)nc(C(F)(F)F)cn12 (stereo not drawn) is ___ 6.30 to 7.00

* * *

- Tested on: Phosphorylated Ribosomal Protein S6 (RPS6) in THP-1 cells
- Assay Summary: THP-1 RPS6 ELISA assay
- Assay type: cell-based, Human
- Run Parameters: Homo sapiens; THP-1 cells, serum starved, 2 h compound, 10 nM MCP-1 for 15 min, phospho-RPS6 ELISA; read-out: PI3Kγ_THP1_RPS6_ELISA IC50
pIC50: −log10 of the molar value. Counter-ions that a name gives are not always drawn.
Reported Property: pIC50

Fill in: pIC50 of Cc1ccc(C(O)(CNC(=O)CF)C(F)(F)F)cc1-c1cnc2c(N)nc(C(F)(F)F)cn12 (stereo not shown) [Example 214, trifluoroacetate salt] is ___ 6.30 to 7.00

* * *

- Target Under Test: PI3Kδ (p110δ/p85α) Recombinant Human Protein (Homo sapiens (Human), UniProt O00329)
- Assay Summary: PI3Kδ scintillation proximity assay
- Format: biochemical
- Run Parameters: 20 μM PIP2, 2 μM ATP, 3.4 nM PI3Kδ, 120 min, room temperature; read-out: PI3Kδ IC50
pIC50: −log10 of the molar value. Counter-ions that a name gives are not always drawn.
Reported Property: pIC50

Answered cases to consult:
>>> reported_result("Cc1ccc(C(C)(O)C(F)(F)F)cc1-c1cnc2c(N)nc(C(=O)NC34CC(C#N)(C3)C4)cn12 (stereo not shown) [Example 278, trifluoroacetate salt]")
"6.30 to 7.00"
>>> reported_result("Cc1ccc(C(C)(O)C(F)(F)F)cc1-c1cnc2c(N)nc(-c3ccnc(CO)c3)cn12 (single isomer, unassigned) [Example 12]")
"> 7.00"
>>> reported_result("Cc1ccc(C(C)(O)C(F)(F)F)cc1-c1cnc2c(N)nc(C(=O)NCC3(C#N)CCC3)cn12 (stereo not shown) [Example 283, trifluoroacetate salt]")
"> 7.00"
>>> reported_result("Cc1ccc(C(C)(O)C(F)F)cc1-c1cnc2c(N)nc(-c3cncc(S(C)(=O)=O)c3)cn12 (stereo not shown)")
"6.30 to 7.00"
>>> reported_result("Cc1cc(-c2cn3c(-c4cc(C(C)(O)C(F)F)ccc4C)cnc3c(N)n2)on1 (stereo not shown) [Example 48, trifluoroacetate]")
"6.30 to 7.00"
>>> reported_result("Cc1ccc(C(C)(O)C(F)(F)F)cc1-c1cnc2c(N)nc(C#CC3CC3)cn12 (stereo not shown) [Example 162, trifluoroacetate salt]")
"6.30 to 7.00"

Now turn to the next compound.
Fill in: pIC50 of Cc1ccc(C(O)(c2nnnn2C)C(F)(F)F)cc1-c1cnc2c(N)nc(C(F)(F)F)cn12 (stereo not shown) [Example 13, trifluoroacetate] is ___ 6.30 to 7.00
